- targetUnderTest: Bile acid receptor (Homo sapiens, UniProt Q96RI1)
- method: Agonist activity at human FXR LBD assessed as SRC1 peptide recruitment by FRET assay
- Format: functional
measuredParameter: EC50 (µM)

Cc1cc(C(=O)O)nc2ccc(-c3ccc(OCc4c(-c5c(Cl)cccc5Cl)noc4C(C)C)cc3)cc12	0.081

(a) CC(C)c1onc(-c2c(Cl)cccc2Cl)c1COc1ccc(-c2ccc3nc(C(=O)O)cnc3c2)cc1
(b) CCCOc1cc(C(=O)O)nc2ccc(-c3ccc(OCc4c(-c5c(Cl)cccc5Cl)noc4C(C)C)cc3)cc12
[Q] Could you point out whether the larger EC50 belongs to a or to b ? Record your answer as the label of the chosen record.
[A] a

====

- targetUnderTest: Bile acid receptor (Homo sapiens) (UniProt Q96RI1)
- Sequence (whole entry): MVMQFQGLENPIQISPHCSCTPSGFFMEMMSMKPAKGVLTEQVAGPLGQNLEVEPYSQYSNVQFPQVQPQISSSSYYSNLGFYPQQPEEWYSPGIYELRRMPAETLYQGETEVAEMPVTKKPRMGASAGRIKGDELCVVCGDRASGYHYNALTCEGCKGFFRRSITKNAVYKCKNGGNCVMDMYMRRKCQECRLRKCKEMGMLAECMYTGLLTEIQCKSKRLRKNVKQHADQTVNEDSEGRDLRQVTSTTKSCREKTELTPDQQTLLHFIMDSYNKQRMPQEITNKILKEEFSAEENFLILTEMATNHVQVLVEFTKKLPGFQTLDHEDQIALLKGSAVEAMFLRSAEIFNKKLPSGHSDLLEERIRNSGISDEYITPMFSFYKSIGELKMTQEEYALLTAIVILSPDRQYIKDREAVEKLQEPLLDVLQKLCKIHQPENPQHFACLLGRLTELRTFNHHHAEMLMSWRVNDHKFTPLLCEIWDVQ
- method: Agonist activity at human FXR LBD assessed as SRC1 peptide recruitment by FRET assay relative to GW 4064
- Assay type: functional
measuredParameter: Activity (%)

// below: answered compounds
CC(C)c1onc(-c2c(Cl)cccc2Cl)c1COc1ccc(-c2ccc3nc(C(=O)O)nnc3c2)cc1	100
Cc1cc(OCc2c(-c3c(Cl)cccc3Cl)noc2C(C)C)ccc1-c1ccc2nc(C(=O)O)ccc2c1	87
CC(C)c1onc(-c2c(Cl)cccc2Cl)c1COc1ccc(-c2ccc3cc(C(=O)O)cnc3c2)cc1	87
Cc1cc(-c2ccc3nc(C(=O)O)ccc3c2)ccc1OCc1c(-c2c(Cl)cccc2Cl)noc1C(C)C	100
CC(C)c1onc(-c2c(Cl)cccc2Cl)c1COc1ccc(-c2ccc3c(C(=O)O)nccc3c2)cc1	92
CC(C)c1onc(-c2c(Cl)cccc2Cl)c1COc1ccc(-c2ccc3nc(C(=O)O)cnc3c2)cc1	96

(P) CC(C)c1onc(-c2c(Cl)cccc2Cl)c1COc1ccc(-c2ccc3nc(C(=O)O)cc(O)c3c2)cc1
(Q) CC(C)c1onc(-c2c(Cl)cccc2Cl)c1COc1ccc(-c2ccc3c(C(=O)O)cccc3c2)cc1
[Q] Which of these two has the smaller recorded Activity: P or Q ? Response format: the label of the selected entry.
[A] P
(P: 91%, Q: 134%)

====

- targetUnderTest: Bile acid receptor (Homo sapiens)
- method: Agonist activity at human FXR LBD assessed as SRC1 peptide recruitment by FRET assay
- Type: functional
pEC50: −log10 of the molar value.
measuredParameter: pEC50

Solved cases (3 shown):
COc1cc(C(=O)O)nc2ccc(-c3ccc(OCc4c(-c5c(Cl)cccc5Cl)noc4C(C)C)cc3)cc12	7.24
CC(C)c1onc(-c2c(Cl)cccc2Cl)c1COc1ccc(-c2ccc3c(C(=O)O)ccnc3c2)cc1	6.47
Cc1cc(OCc2c(-c3c(Cl)cccc3Cl)noc2C(C)C)ccc1-c1ccc2nc(C(=O)O)ccc2c1	6.60

(1) Cc1nc(C(=O)O)nc2ccc(-c3ccc(OCc4c(-c5c(Cl)cccc5Cl)noc4C(C)C)cc3)cc12
(2) CC(C)c1onc(-c2c(Cl)cccc2Cl)c1COc1ccc(-c2ccc3nc(C(=O)O)nnc3c2)cc1
(3) CC(C)COc1cc(C(=O)O)nc2ccc(-c3ccc(OCc4c(-c5c(Cl)cccc5Cl)noc4C(C)C)cc3)cc12
[Q] Exam item: list the entries in increasing order of pEC50. Output spec: labels arranged per the requested ranking.
[A] 2, 1, 3
